System: RXRa DBDmut IVT, anti-RXR (DBD mutation: RXRa K156A/R161A, NR concentration 90 nM)
Assay: PBM binding z-score (relative to random genomic background probes); higher = stronger binding; sequences stand for … in GC…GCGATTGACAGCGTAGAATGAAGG
Everything with PBM binding z-score lower than 0.3 is No; everything else, including exactly 0.3, is Yes.

# ordered-residues, assigned-class
data = [
    ("TCGAGTAGGTTAGGGGCATGCAGAATGGCGTCGA", "No"),
    ("TAGCCTAGGTCATTCAGGGGCCAATATAGAAAGC", "Yes"),
    ("TCTTGTAGATCAAGCAGGTGAAGAAAGCCTGAGT", "Yes"),
    ("TCTGCTAGGTCGACGATGGTCAGCTAATCTGCTA", "No"),
]

----------
System: PPARg DBDmut IVT, anti-PPARg (DBD mutation: PPARg1 K132A/R137A, NR concentration 270 nM)
Test: PBM binding z-score (relative to random genomic background probes); higher = stronger binding; sequences stand for … in GC…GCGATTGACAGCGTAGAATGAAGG
value-type: PBM binding z-score

# ordered-residues, system, test-value
records = [
    ("GGAACGAGGGCAAAGTTGATAACATCTGTCGACG", "PPARg DBDmut IVT, anti-PPARg (DBD mutation: PPARg1 K132A/R137A, NR concentration 270 nM)", 0.51),
    ("AGAACGAGGGCCATGAGTTGATAGCACGGGTGGC", "PPARg DBDmut IVT, anti-PPARg (DBD mutation: PPARg1 K132A/R137A, NR concentration 270 nM)", 0.0603),
    ("CATACAGGGTCAGCTAGCCCAGAGTAGGGACGGC", "PPARg DBDmut IVT, anti-PPARg (DBD mutation: PPARg1 K132A/R137A, NR concentration 270 nM)", -0.0933),
    ("TGTCAAAGTTCAAAGGTAACATAAGTATCCACAC", "PPARg DBDmut IVT, anti-PPARg (DBD mutation: PPARg1 K132A/R137A, NR concentration 270 nM)", 2.04),
    ("TCATATAGGTAAATGCTAGGTGAAAGTCCGATCT", "PPARg DBDmut IVT, anti-PPARg (DBD mutation: PPARg1 K132A/R137A, NR concentration 270 nM)", 1.03),
    ("CCTTGTTGGTCAGGAGGTCACACACCGGATATGA", "PPARg DBDmut IVT, anti-PPARg (DBD mutation: PPARg1 K132A/R137A, NR concentration 270 nM)", 0.471),
    ("CGTCCATGGTCAAGGTCAGTGAAAGAGACTCGAA", "PPARg DBDmut IVT, anti-PPARg (DBD mutation: PPARg1 K132A/R137A, NR concentration 270 nM)", -0.778),
    ("TCTGCTAGGTCAGTTGGACAGCTAACGAGCTGCC", "PPARg DBDmut IVT, anti-PPARg (DBD mutation: PPARg1 K132A/R137A, NR concentration 270 nM)", 0.399),
    ("AGAATGAGGTTACCAAAGATTAGGGAAACGCTTG", "PPARg DBDmut IVT, anti-PPARg (DBD mutation: PPARg1 K132A/R137A, NR concentration 270 nM)", 0.534),
    ("GGAACGAGGGCAAGTTGATAGTAGAGTTTGATGG", "PPARg DBDmut IVT, anti-PPARg (DBD mutation: PPARg1 K132A/R137A, NR concentration 270 nM)", -0.486),
    ("GCATATAGGTAATACAAGGTGAAAGGCCGATTGT", "PPARg DBDmut IVT, anti-PPARg (DBD mutation: PPARg1 K132A/R137A, NR concentration 270 nM)", 0.825),
    ("CAAACTAGGTCGCGAAAGGTCAAAGTCGAATGAC", "PPARg DBDmut IVT, anti-PPARg (DBD mutation: PPARg1 K132A/R137A, NR concentration 270 nM)", 1.98),
    ("CCTACTGTGCCAAGGTCATTGATCAGTCAAAGCA", "PPARg DBDmut IVT, anti-PPARg (DBD mutation: PPARg1 K132A/R137A, NR concentration 270 nM)", 0.41),
    ("CGTCCAAGGTCAGACAGGTCAGTGAATGCCGAGT", "PPARg DBDmut IVT, anti-PPARg (DBD mutation: PPARg1 K132A/R137A, NR concentration 270 nM)", -0.665),
    ("TCATATAGGTAAAAGGTGATAGTCGGTGTGGTAA", "PPARg DBDmut IVT, anti-PPARg (DBD mutation: PPARg1 K132A/R137A, NR concentration 270 nM)", 1.38),
    ("TCATATAGGTCAATGCTAGGTGAAAGTCCGATCT", "PPARg DBDmut IVT, anti-PPARg (DBD mutation: PPARg1 K132A/R137A, NR concentration 270 nM)", 2.16),
    ("TAGCCTAGGTCATGCGGGCCAGTACAGTGTCGGC", "PPARg DBDmut IVT, anti-PPARg (DBD mutation: PPARg1 K132A/R137A, NR concentration 270 nM)", -0.334),
    ("CGAACGAGGGGATGAGTTGATAGCAAATGCCGAT", "PPARg DBDmut IVT, anti-PPARg (DBD mutation: PPARg1 K132A/R137A, NR concentration 270 nM)", 0.151),
    ("CGTAAAAGTTCAACTAAGGTAACGTAAAGCACGC", "PPARg DBDmut IVT, anti-PPARg (DBD mutation: PPARg1 K132A/R137A, NR concentration 270 nM)", 1.06),
    ("GCTTGTAGATCAAGGTTACGAAAGACTAAGCTAA", "PPARg DBDmut IVT, anti-PPARg (DBD mutation: PPARg1 K132A/R137A, NR concentration 270 nM)", -0.483),
    ("TCGAGTAGGTTAGTGGCATTCAGAATGGCGTCGA", "PPARg DBDmut IVT, anti-PPARg (DBD mutation: PPARg1 K132A/R137A, NR concentration 270 nM)", -0.671),
    ("CCTACTAGGCCACGAAAGGTCATTGATTCAGTGA", "PPARg DBDmut IVT, anti-PPARg (DBD mutation: PPARg1 K132A/R137A, NR concentration 270 nM)", 0.0553),
    ("TCTATTAGTTGATTATGGCAACCGAAACAGCGGA", "PPARg DBDmut IVT, anti-PPARg (DBD mutation: PPARg1 K132A/R137A, NR concentration 270 nM)", 1.66),
    ("TTACCAACGTGAAAGGTCGTTGATGCACGCCTTG", "PPARg DBDmut IVT, anti-PPARg (DBD mutation: PPARg1 K132A/R137A, NR concentration 270 nM)", -0.158),
    ("CCTAACAGGCCAATCTGGGTCACTCAAGGCTTGA", "PPARg DBDmut IVT, anti-PPARg (DBD mutation: PPARg1 K132A/R137A, NR concentration 270 nM)", -0.8),
    ("CCTTTCGGGTCACTCCAGGTTATAGCATCGGAGT", "PPARg DBDmut IVT, anti-PPARg (DBD mutation: PPARg1 K132A/R137A, NR concentration 270 nM)", -0.494),
    ("CCAATTAGTTGACCATAAGGGCAACCGAAGCTCG", "PPARg DBDmut IVT, anti-PPARg (DBD mutation: PPARg1 K132A/R137A, NR concentration 270 nM)", 0.147),
    ("CCTAGTTGGTCAGGCGGTCACACACCGGATATGA", "PPARg DBDmut IVT, anti-PPARg (DBD mutation: PPARg1 K132A/R137A, NR concentration 270 nM)", -0.024),
    ("CCGACTGGGGAAAAGGTTACCATACTCAGTACGA", "PPARg DBDmut IVT, anti-PPARg (DBD mutation: PPARg1 K132A/R137A, NR concentration 270 nM)", -0.129),
    ("ATATGTAGGTTATCGGGACATTCAGTTTGCGCAT", "PPARg DBDmut IVT, anti-PPARg (DBD mutation: PPARg1 K132A/R137A, NR concentration 270 nM)", 2.08),
    ("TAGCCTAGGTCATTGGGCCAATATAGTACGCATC", "PPARg DBDmut IVT, anti-PPARg (DBD mutation: PPARg1 K132A/R137A, NR concentration 270 nM)", 0.532),
    ("CCTCCTAGGTCAATGGTCAGCTAAAGCAGCTCGC", "PPARg DBDmut IVT, anti-PPARg (DBD mutation: PPARg1 K132A/R137A, NR concentration 270 nM)", 0.119),
    ("GATACAGGGTCAAGGCCGGAGTACGCGTATTGAT", "PPARg DBDmut IVT, anti-PPARg (DBD mutation: PPARg1 K132A/R137A, NR concentration 270 nM)", 0.122),
    ("CCGACTGGGGTAAAGGTTACCATACTCAGTACGA", "PPARg DBDmut IVT, anti-PPARg (DBD mutation: PPARg1 K132A/R137A, NR concentration 270 nM)", 0.0634),
    ("ATACCAAGGTGAACGTGAGGTCGTTGATACTAAC", "PPARg DBDmut IVT, anti-PPARg (DBD mutation: PPARg1 K132A/R137A, NR concentration 270 nM)", 0.95),
    ("AGAACGAGGGCACTCTGAGTTGATAGCAGAGTAG", "PPARg DBDmut IVT, anti-PPARg (DBD mutation: PPARg1 K132A/R137A, NR concentration 270 nM)", -0.0516),
]
